System: 454973-116-R2-J3-PDC spheroids, percent test/control viability
Assay procedure: Anticancer human tumor 454973-116-R2-J3-PDC patient-derived pancreatic carcinoma cell line growth inhibition [CLK]
Assay setup: second compound 1 µM; first compound 0.0316 µM; active compounds read low; spheroids with HUVEC and MSC
So basically, if viability, T/C comes in under 0.6% it's Y, and if it's 0.6% or more it's N.

>  <Molecule>
COC1C=CCC(C)C(C)S(=O)(=O)NC(=O)c2ccc3c(c2)N(CC2CCC21)CC1(CCCc2cc(Cl)ccc21)CO3 (stereo not given) + CN1CCN(c2cc(C(=O)Nc3cc4cc(-c5cnn(C)c5)ccc4cn3)ccn2)CC1

>  <Assigned category>
Y

$$$$

Exercise: Threshold test, viability, T/C < 0.6%: COc1c(OCCCN2CCOCC2)ccc2c3n(c(=NC(=O)c4cnc(N)nc4)nc12)CCN3 + CN1CCN(c2cc(C(=O)Nc3cc4cc(-c5cnn(C)c5)ccc4cn3)ccn2)CC1
Key: Y

Exercise: Threshold test, viability, T/C < 0.6%: Cn1ncnc1[C@H]1c2n[nH]c(=O)c3cc(F)cc(c23)N[C@@H]1c1ccc(F)cc1 + CNC(=O)c1ccc(Nc2nc(OC3CCCC3)c3c(-c4ccc5nc(C)oc5c4)c[nH]c3n2)c(OC)c1
Key: N

Exercise: Threshold test, viability, T/C < 0.6%: CCc1c2c(nc3ccc(O)cc13)-c1cc3c(c(=O)n1C2)COC(=O)[C@]3(O)CC + CN1CCN(c2cc(C(=O)Nc3cc4cc(-c5cnn(C)c5)ccc4cn3)ccn2)CC1
Key: Y

Exercise: Threshold test, viability, T/C < 0.6%: CCCS(=O)(=O)Nc1ccc(F)c(C(=O)c2c[nH]c3ncc(-c4ccc(Cl)cc4)cc23)c1F + CN1CCN(c2cc(C(=O)Nc3cc4cc(-c5cnn(C)c5)ccc4cn3)ccn2)CC1
Key: Y

---

Entries and their measured viability, T/C follow.
Tested on: 454973-116-R2-J3-PDC spheroids, percent test/control viability
Assay procedure: Anticancer human tumor 454973-116-R2-J3-PDC cell line growth inhibition [CLK];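 further: spheroids exposed to compounds for 7 days before readout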
Assay setup: second compound 0.1 µM; first compound 3.16 µM; active compounds read low; spheroids with HUVEC and MSC
Kindly provide the numeric value in % only, without the unit symbol.

>  <Compound>
C#Cc1c(F)ccc2cc(O)cc(-c3ncc4c(N5CC6CCC(C5)N6)nc(OCC56CCCN5CC(F)C6)nc4c3F)c12 (centres undefined) + CN1CCN(c2cc(C(=O)Nc3cc4cc(-c5cnn(C)c5)ccc4cn3)ccn2)CC1

>  <Units symbol>
%

>  <viability, T/C>
22.5

$$$$
>  <Compound>
CCCS(=O)(=O)Nc1ccc(F)c(C(=O)c2c[nH]c3ncc(-c4ccc(Cl)cc4)cc23)c1F + CNC(=O)c1ccc(Nc2nc(OC3CCCC3)c3c(-c4ccc5nc(C)oc5c4)c[nH]c3n2)c(OC)c1

>  <Units symbol>
%

>  <viability, T/C>
109

$$$$
>  <Compound>
O=C(c1cc(Cc2n[nH]c(=O)c3ccccc23)ccc1F)N1CCN(C(=O)C2CC2)CC1 + CNC(=O)c1ccc(Nc2nc(OC3CCCC3)c3c(-c4ccc5nc(C)oc5c4)c[nH]c3n2)c(OC)c1

>  <Units symbol>
%

>  <viability, T/C>
92.8

$$$$

Exercise: Entry O=c1[nH]cc(F)c(=O)[nH]1 + CN1CCN(c2cc(C(=O)Nc3cc4cc(-c5cnn(C)c5)ccc4cn3)ccn2)CC1 has what viability, T/C?
Key: 27.7

---

Entries and their measured viability, T/C follow.
System: 454973-116-R2-J3-PDC spheroids, percent test/control viability
Assay procedure: Anticancer human tumor 454973-116-R2-J3-PDC cell line growth inhibition [CLK];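 further: spheroids exposed to compounds for 7 days before readout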
Assay setup: second compound 0.1 µM; first compound 3.16 µM; active compounds read low; spheroids with HUVEC and MSC

Look over these answered cases.
>  <Molecule>
CC(CO)NC(=O)c1cc(-c2ccc(Cl)cc2)nn(-c2cnn(C)c2)c1=O (stereo not given) + CN1CCN(c2cc(C(=O)Nc3cc4cc(-c5cnn(C)c5)ccc4cn3)ccn2)CC1

>  <Property measured>
viability, T/C

>  <Observed>
82%

$$$$
>  <Molecule>
CC(=O)O[C@H]1C(=O)[C@@]2(C)[C@H]([C@H](OC(=O)c3ccccc3)[C@]3(O)C[C@H](OC(=O)[C@H](O)[C@@H](NC(=O)c4ccccc4)c4ccccc4)C(C)=C1C3(C)C)[C@]1(OC(C)=O)CO[C@@H]1C[C@@H]2O + CNC(=O)c1ccc(Nc2nc(OC3CCCC3)c3c(-c4ccc5nc(C)oc5c4)c[nH]c3n2)c(OC)c1

>  <Property measured>
viability, T/C

>  <Observed>
14.3%

$$$$
>  <Molecule>
CC1COCCN1c1cc(C2(S(C)(=N)=O)CC2)nc(-c2ccnc3[nH]ccc23)n1 (stereo not given) + CN1CCN(c2cc(C(=O)Nc3cc4cc(-c5cnn(C)c5)ccc4cn3)ccn2)CC1

>  <Property measured>
viability, T/C

>  <Observed>
62.9%

$$$$
>  <Molecule>
COc1ccc([C@@H](O)c2cc(-c3ncnc4cc(N5CCOCC5)ccc34)c(F)cc2Cl)nn1 + CN1CCN(c2cc(C(=O)Nc3cc4cc(-c5cnn(C)c5)ccc4cn3)ccn2)CC1

>  <Property measured>
viability, T/C

>  <Observed>
47.4%

$$$$
>  <Molecule>
Nc1ccn(C2OC(CO)C(O)C2(F)F)c(=O)n1 (stereo not given) + CNC(=O)c1ccc(Nc2nc(OC3CCCC3)c3c(-c4ccc5nc(C)oc5c4)c[nH]c3n2)c(OC)c1

>  <Property measured>
viability, T/C

>  <Observed>
11.6%

$$$$

# next molecule below
Exercise: Entry O=c1[nH]cc(F)c(=O)[nH]1 + CNC(=O)c1ccc(Nc2nc(OC3CCCC3)c3c(-c4ccc5nc(C)oc5c4)c[nH]c3n2)c(OC)c1 has what viability, T/C?
Key: 33.6%

---

Test system: 454973-116-R2-J3-PDC spheroids, percent test/control viability
Assay procedure: Anticancer human tumor 454973-116-R2-J3-PDC cell line growth inhibition [CLK]; active means viability on the fitted dose curve at most 10% of control; inactive means the rest;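 further: spheroids exposed to compounds for 7 days before readout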
Assay setup: second compound 10 µM; first compound 0.0316 µM; spheroids with HUVEC and MSC
Write down one outcome, taken from active, inactive

Reference set (3 entries):
>  <Molecule>
O=C(c1cc(Cc2n[nH]c(=O)c3ccccc23)ccc1F)N1CCN(C(=O)C2CC2)CC1 + CNC(=O)c1ccc(Nc2nc(OC3CCCC3)c3c(-c4ccc5nc(C)oc5c4)c[nH]c3n2)c(OC)c1

>  <Assigned category>
inactive

$$$$
>  <Molecule>
COC1C=CCC(C)C(C)S(=O)(=O)NC(=O)c2ccc3c(c2)N(CC2CCC21)CC1(CCCc2cc(Cl)ccc21)CO3 (stereo not given) + CNC(=O)c1ccc(Nc2nc(OC3CCCC3)c3c(-c4ccc5nc(C)oc5c4)c[nH]c3n2)c(OC)c1

>  <Assigned category>
inactive

$$$$
>  <Molecule>
CC1COCCN1c1cc(C2(S(C)(=N)=O)CC2)nc(-c2ccnc3[nH]ccc23)n1 (stereo not given) + CNC(=O)c1ccc(Nc2nc(OC3CCCC3)c3c(-c4ccc5nc(C)oc5c4)c[nH]c3n2)c(OC)c1

>  <Assigned category>
inactive

$$$$

Exercise: What is the recorded call for this molecule in the test? C#Cc1c(F)ccc2cc(O)cc(-c3ncc4c(N5CC6CCC(C5)N6)nc(OCC56CCCN5CC(F)C6)nc4c3F)c12 (stereo not given) + CNC(=O)c1ccc(Nc2nc(OC3CCCC3)c3c(-c4ccc5nc(C)oc5c4)c[nH]c3n2)c(OC)c1
Key: inactive

Exercise: What is the recorded call for this molecule in the test? Cn1ncnc1[C@H]1c2n[nH]c(=O)c3cc(F)cc(c23)N[C@@H]1c1ccc(F)cc1 + CN1CCN(c2cc(C(=O)Nc3cc4cc(-c5cnn(C)c5)ccc4cn3)ccn2)CC1
Key: active

Exercise: What is the recorded call for this molecule in the test? CC(Nc1ccc2c(c1)OCCn1cc(N3C(=O)OCC3C(F)F)nc1-2)C(N)=O (stereo not given) + CN1CCN(c2cc(C(=O)Nc3cc4cc(-c5cnn(C)c5)ccc4cn3)ccn2)CC1
Key: active

Exercise: What is the recorded call for this molecule in the test? O=c1[nH]cc(F)c(=O)[nH]1 + CNC(=O)c1ccc(Nc2nc(OC3CCCC3)c3c(-c4ccc5nc(C)oc5c4)c[nH]c3n2)c(OC)c1
Key: inactive

Exercise: What is the recorded call for this molecule in the test? COC1C=CCC(C)C(C)S(=O)(=O)NC(=O)c2ccc3c(c2)N(CC2CCC21)CC1(CCCc2cc(Cl)ccc21)CO3 (stereo not given) + CN1CCN(c2cc(C(=O)Nc3cc4cc(-c5cnn(C)c5)ccc4cn3)ccn2)CC1
Key: active

Exercise: What is the recorded call for this molecule in the test? C=CC(=O)N1CCN(c2nc(=O)n(-c3c(C)ccnc3C(C)C)c3nc(-c4c(O)cccc4F)c(F)cc23)C(C)C1 (stereo not given) + CNC(=O)c1ccc(Nc2nc(OC3CCCC3)c3c(-c4ccc5nc(C)oc5c4)c[nH]c3n2)c(OC)c1
Key: inactive

Exercise: What is the recorded call for this molecule in the test? C=C(F)C(=O)N1CCN(c2nc(OCC3CCCN3C)nc3c2CCN(c2cccc4cccc(Cl)c24)C3)CC1CC#N (stereo not given) + CNC(=O)c1ccc(Nc2nc(OC3CCCC3)c3c(-c4ccc5nc(C)oc5c4)c[nH]c3n2)c(OC)c1
Key: inactive
